# Tested on: spindle assembly checkpoint
# assay name: SAC-Formation - Nocodazole-Induced Assay
# Type: cell-based
# conditions: Homo sapiens; HeLa cells, nocodazole 0.1 μg/ml, 24 h, phosphorylated histone H3 on serine 10
pIC50: −log10 of the molar value.
Classify by measured pIC50: yes (1) if it is equal to or exceeds 7, no (0) if it is smaller.

smiles entry: CNC(=O)c1ccc(Nc2snc(C)c2C(=O)Nc2ccc(F)c(F)c2)nn1
label value: no (0)
--
smiles entry: COc1ccc(Oc2ccc(NC(=O)c3c(C)nsc3Nc3cc(C#N)ccn3)cn2)cc1
label value: no (0)
--
smiles entry: Cc1nsc(Nc2cnc3ccccc3n2)c1C(=O)Nc1ccc(Cl)c(F)c1
label value: yes (1)

Now consider the entry below.
Evaluate "COc1ccc(NC(=O)c2c(C)nsc2Nc2cnc3ccc(F)cc3n2)cn1" : pIC50 at minimum 7?
no (0)

###

# test target: CDK2/CycE (Homo sapiens (Human))
# assay name: CDK2/CycE kinase assay (TR-FRET)
# Assay type: biochemical
# conditions: 10 μM ATP; read-out: CDK2 avg (IC50 [mol/l])
quantity: IC50

Example cases with answers are listed next.
smiles entry: CCc1ccccc1NC(=O)c1c(C)nsc1Nc1cnc2ccc(Cl)cc2n1
IC50: > 20 µM
//
smiles entry: COc1ccc(NC(=O)c2c(C)nsc2Nc2cnc3ccccc3n2)cn1
IC50: > 20 µM
//
smiles entry: Cc1nsc(Nc2cncc(-n3cccn3)n2)c1C(=O)Nc1ccc(F)c(F)c1
IC50: 8.4 µM
//
smiles entry: CCc1ccccc1NC(=O)c1c(C)nsc1Nc1ncnc2sccc12
IC50: > 20 µM

# context switch: different compound, same IC50
Given the entry "Cc1nsc(Nc2cnc(C(=O)N(C)C)cn2)c1C(=O)Nc1ccc(F)c(F)c1" , report its measured IC50.
> 20 µM

###

# Test system: spindle assembly checkpoint
# assay name: SAC-Formation - Paclitaxel-Induced Assay
# Type: cell-based
# conditions: Homo sapiens; HeLa cells, paclitaxel 0.05 μM, 24 h, phosphorylated histone H3 on serine 10
Each record is given 1.0 if its reported IC50 is strictly below 2000 nM. Records at or above 2000 nM are given 0.0.

Example entries and their recorded answers appear below.
smiles entry: CCc1ccccc1NC(=O)c1c(C)nsc1Nc1nccc(OC)n1
label value: 0.0

smiles entry: Cc1cncc(Nc2snc(C)c2C(=O)Nc2ccc(F)c(F)c2)n1
label value: 1.0

smiles entry: COc1ccc(NC(=O)c2c(C)nsc2Nc2cncc(C(F)(F)F)n2)cn1
label value: 1.0

smiles entry: Cc1nsc(Nc2cnc3cc(C(F)(F)F)ccc3n2)c1C(=O)Nc1ccc(Cl)c(Cl)c1
label value: 1.0

smiles entry: CCc1ccccc1NC(=O)c1c(C)nsc1Nc1cc(C#N)ccn1
label value: 1.0

smiles entry: COc1ccc(NC(=O)c2c(C)nsc2Nc2ccc(C#N)cn2)cn1
label value: 1.0

smiles entry: COc1ccc(NC(=O)c2c(C)nsc2Nc2ncc(C(=O)N3CCOCC3)s2)cc1F
label value: 0.0

smiles entry: COC(=O)c1cncc(Nc2snc(C)c2C(=O)Nc2ccc(F)c(F)c2)n1
label value: 1.0

smiles entry: COc1ccc(NC(=O)c2c(C)nsc2Nc2nc3ccc(C)cc3s2)cn1
label value: 0.0

Now consider the entry below.
Please determine if "CCc1ccccc1NC(=O)c1c(C)nsc1Nc1nccnc1C#N" is below 2000 nM in terms of IC50.
1.0
